Below, each of the variants is paired with its reported self-cleavage value.
B1: HDV Ribozyme (parent)
chain: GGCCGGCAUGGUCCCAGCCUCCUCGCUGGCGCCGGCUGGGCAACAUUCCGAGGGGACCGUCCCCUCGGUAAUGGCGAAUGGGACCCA

Variants of: B1
Assay: self-cleavage, relative activity (ratio to wild type); higher = more cleavage; co-transcriptional
VALUE_KIND: self-cleavage

In [3]: df
Out[3]:
    mutation_id  observed
 0    A43G C85A      0.44
 1    C19U G34C    0.0346
 2    G68C G81A     0.526
 3    G17C C32U         0
 4    G82A C85U     0.495
 5    C49G G82U     0.123
 6    U60A G82A     0.373
 7      C3G A8G     0.767
 8    G31U C48G     0.543
 9    G67C A71U     0.716
10    A51G G82A     0.125
11    U27A G81C     0.356
12    U12G C64U     0.914
13    U37C C49G      1.21
14    G31C U60A     0.434
15    G53A C64G     0.769
16     U9G G29C         0
17    A45C C49A      0.72
18    C49G G73A     0.197
19    G39C G40A     0.695
20    G29U G35U     0.058
21    A42U G53A     0.875
22    C33G C64G     0.156
23     C4G A42C         0
24    G34A U60A     0.204
25    A51G G76A      0.91
26    C14A G54U     0.628
27    C19G A83C         0
28    C48U C64U     0.997
29    C18U A78G     0.285
30    C48U A77U     0.356
31    A78C A83U     0.166
32    C14U C62A      1.06
33    G52A G55U     0.934
34     G2A G76U     0.332
35     G5A C41U     0.277
36     G1C G55U     0.203
37    G50U G80A     0.486
38     G5A C48G     0.101
39     U9G A70C     0.886
40    C14G C24U     0.403
41    G17C C86G     0.131
42    A45C C61U     0.796
43    G59C G76U     0.891
44    G50A G82C     0.409
45    G50U G82A     0.499
46    C62U A83C     0.359
47    C30A G35A     0.244
48    G52U U79G     0.521
49    U47A G55C      1.15
50    C21U G54C     0.292
51    C30G C63G    0.0923
52    G34U U46G     0.196
53    U20C C41G     0.172
54      C3A C7G    0.0223
55    G11C U37C     0.201
56    A71U A83U     0.426
57     C7G C22G    0.0791
58      C3A U9G     0.985
59    C19A A56G     0.256
60      C4A A8G     0.192
61    G39C G76U     0.831
62    G50C G59A     0.992
63    U47C U72A      0.65
64     A8G G52C      1.26
65    U23A C64A     0.814
66    G35C C84G     0.116
67    C18G U23G         0
68    G34U U47C     0.234
69    C32A A70G     0.285
70    C22G G59C     0.151
71    G59U A87G     0.993
72     G6A C13U     0.145
73     G5U C48A     0.712
